Where do the numbers come from? From patent US20220304976A1.

Binging with ACE2 (% of control ± SD) for assorted compounds
Target: hACE2 receptor (Homo sapiens, UniProt Q9BYF1)
Construct: purchased GenScript
Sequence (Q9BYF1 18-740): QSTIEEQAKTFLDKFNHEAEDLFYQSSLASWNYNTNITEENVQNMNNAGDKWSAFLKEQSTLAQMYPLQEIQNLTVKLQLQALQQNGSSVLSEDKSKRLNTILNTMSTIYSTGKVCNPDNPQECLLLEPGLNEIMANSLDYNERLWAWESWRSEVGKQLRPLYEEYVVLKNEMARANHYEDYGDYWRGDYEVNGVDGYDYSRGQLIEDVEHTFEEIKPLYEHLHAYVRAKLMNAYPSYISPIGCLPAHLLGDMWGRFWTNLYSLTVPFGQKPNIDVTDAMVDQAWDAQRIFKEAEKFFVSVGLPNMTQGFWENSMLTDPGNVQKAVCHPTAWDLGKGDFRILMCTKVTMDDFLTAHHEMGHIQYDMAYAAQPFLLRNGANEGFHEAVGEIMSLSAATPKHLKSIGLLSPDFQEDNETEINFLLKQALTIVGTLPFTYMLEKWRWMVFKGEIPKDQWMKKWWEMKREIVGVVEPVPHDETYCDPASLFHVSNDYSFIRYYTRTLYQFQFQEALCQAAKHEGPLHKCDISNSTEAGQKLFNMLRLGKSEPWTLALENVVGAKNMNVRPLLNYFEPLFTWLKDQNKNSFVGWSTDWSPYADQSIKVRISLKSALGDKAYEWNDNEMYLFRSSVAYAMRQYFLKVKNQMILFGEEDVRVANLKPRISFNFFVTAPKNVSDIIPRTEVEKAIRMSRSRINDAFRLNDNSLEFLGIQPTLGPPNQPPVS
Format: binding
Conditions: Table 3; tested at 0.1 mg/ml

Guide cases for Binging with ACE2 (% of control ± SD), answers given:
{"columns": ["compound", "Binging with ACE2 (% of control ± SD)"],
 "data": [
  ["O=c1cc(-c2ccc(O)c(O)c2)oc2cc(O)cc(O)c12", "4.8 ± 1.6 % of control"],
  ["O=C1C[C@@H](c2ccc(O)cc2)Oc2cc(O)cc(O)c21", "8.3 ± 1.6 % of control"],
  ["O=C(O)CC(O)C(=O)O (stereo not drawn)", "5.8 ± 1.4 % of control"],
  ["Oc1ccc(/C=C/c2cc(O)cc(O)c2)cc1 [Trans-resveratrol]", "5.5 ± 2.4 % of control"],
  ["O=C(OC[C@H]1O[C@@H](OC(=O)c2cc(O)c(O)c(OC(=O)c3cc(O)c(O)c(O)c3)c2)[C@H](OC(=O)c2cc(O)c(O)c(OC(=O)c3cc(O)c(O)c(O)c3)c2)[C@@H](OC(=O)c2cc(O)c(O)c(OC(=O)c3cc(O)c(O)c(O)c3)c2)[C@@H]1OC(=O)c1cc(O)c(O)c(OC(=O)c2cc(O)c(O)c(O)c2)c1)c1cc(O)c(O)c(OC(=O)c2cc(O)c(O)c(O)c2)c1", "7.2 ± 2.3 % of control"],
  ["C=C(C)[C@@H]1CCC(C)=C[C@H]1c1c(O)cc(CCCCC)cc1O [Cannabidiol, reference compound]", "5.8 ± 2.0 % of control"],
  ["O=c1c(O)c(-c2ccc(O)c(O)c2)oc2cc(O)ccc12", "6.0 ± 2.4 % of control"],
  ["C[C@@H]1O[C@@H](OC[C@H]2O[C@@H](Oc3c(-c4ccc(O)c(O)c4)oc4cc(O)cc(O)c4c3=O)[C@H](O)[C@@H](O)[C@@H]2O)[C@H](O)[C@H](O)[C@H]1O", "4.8 ± 2.0 % of control"]
]}

# input Query Binging with ACE2 (% of control ± SD) on hACE2 receptor (Homo sapiens, UniProt Q9BYF1) for O[C@H]1[C@H](O)[C@@H](O)CN2CC[C@H](O)[C@H]12
# output 5.5 ± 3.1 % of control

====

Biological target: hACE2 receptor (Homo sapiens, UniProt Q9BYF1)
Construct: purchased GenScript
Type: binding
Conditions: Table 3; tested at 0.1 mg/ml
Binging with ACE2 (% of control ± SD) for assorted molecules

Guide cases for Binging with ACE2 (% of control ± SD), answers given:
{"columns": ["molecule", "test-value"],
 "data": [
  ["C[C@@H]1O[C@@H](O[C@H]2[C@H](Oc3cc(O)c4c(c3)O[C@H](c3ccc(O)cc3)CC4=O)O[C@H](CO)[C@@H](O)[C@@H]2O)[C@H](O)[C@H](O)[C@H]1O [Naringin]", "3.7 ± 1.1 % of control"],
  ["O=C(/C=C/c1ccc(O)c(O)c1)O[C@H](Cc1ccc(O)c(O)c1)C(=O)O [Rosmarinic acid]", "7.9 ± 1.8 % of control"],
  ["O=c1c(-c2ccc(O)cc2)coc2cc(O)cc(O)c12 [Genistein]", "9.4 ± 2.7 % of control"]
]}

# input Which Binging with ACE2 (% of control ± SD) is reported for this molecule? O=c1c(O)c(-c2ccc(O)c(O)c2)oc2cc(O)cc(O)c12 [Quercetin]
# output 7.8 ± 3.3 % of control

# input Which Binging with ACE2 (% of control ± SD) is reported for this molecule? O=c1c(O)c(-c2ccc(O)cc2)oc2cc(O)cc(O)c12 [Kaempferol]
# output 6.2 ± 2.5 % of control

====

Molecular target: hACE2 receptor (Homo sapiens, UniProt Q9BYF1)
Construct: purchased GenScript
Assay type: binding
Conditions: Table 3; tested at 0.1 mg/ml
assay-endpoint: Binging with ACE2 (% of control ± SD)

# input Which Binging with ACE2 (% of control ± SD) is reported for this compound? O=C(O)[C@H]1O[C@@H](Oc2cc3oc(-c4ccc(O)cc4)cc(=O)c3c(O)c2O)[C@H](O)[C@@H](O)[C@@H]1O
# output 7.5 ± 1.7 % of control

# input Which Binging with ACE2 (% of control ± SD) is reported for this compound? COc1ccc2cc3[n+](cc2c1OC)CCc1cc2c(cc1-3)OCO2
# output 9.4 ± 2.4 % of control

# input Which Binging with ACE2 (% of control ± SD) is reported for this compound? O=C(/C=C/c1ccc(O)c(O)c1)O[C@@H]1C[C@](O)(C(=O)O)C[C@@H](O)[C@H]1O
# output 4.7 ± 1.6 % of control

# input Which Binging with ACE2 (% of control ± SD) is reported for this compound? O=C(O)[C@H]1O[C@@H](Oc2cc3oc(-c4ccccc4)cc(=O)c3c(O)c2O)[C@H](O)[C@@H](O)[C@@H]1O
# output 4.9 ± 1.9 % of control

====

Binging with ACE2 (% of control ± SD) for assorted compounds
Molecular target: hACE2 receptor (Homo sapiens, UniProt Q9BYF1)
Construct: purchased GenScript
Format: binding
Conditions: Table 3; tested at 0.1 mg/ml

Guide cases for Binging with ACE2 (% of control ± SD), answers given:
{"columns": ["compound", "test-value"],
 "data": [
  ["Oc1cc(O)cc(O)c1", "5.9 ± 3.4 % of control"],
  ["CC(C)c1cc2c(c(O)c1O)[C@@]1(C(=O)O)CCCC(C)(C)[C@@H]1CC2", "6.9 ± 4.1 % of control"],
  ["O=c1cc(-c2ccccc2)oc2cc(O)c(O)c(O)c12", "7.4 ± 1.4 % of control"]
]}

# input Which Binging with ACE2 (% of control ± SD) is reported for this compound? CC(=O)c1c(O)c(C)c(O)c2c1OC1=CC(=O)C(C(C)=O)C(=O)C12C (stereo not drawn)
# output 5.7 ± 1.7 % of control

# input Which Binging with ACE2 (% of control ± SD) is reported for this compound? O=c1cc(-c2ccc(O)cc2)oc2cc(O)cc(O)c12
# output 8.3 ± 1.9 % of control

# input Which Binging with ACE2 (% of control ± SD) is reported for this compound? COc1ccc([C@@H]2CC(=O)c3c(O)cc(O)cc3O2)cc1O
# output 4.9 ± 2.7 % of control

# input Which Binging with ACE2 (% of control ± SD) is reported for this compound? COc1cc(/C=C/c2ccc(O)cc2)cc(OC)c1
# output 9.4 ± 2.5 % of control

# input Which Binging with ACE2 (% of control ± SD) is reported for this compound? COc1ccc(Cc2nccc3cc(OC)c(OC)cc23)cc1OC [Papaverine, reference compound]
# output 6.5 ± 3.7 % of control

# input Which Binging with ACE2 (% of control ± SD) is reported for this compound? O=c1c(O)c(-c2cc(O)c(O)c(O)c2)oc2cc(O)cc(O)c12
# output 5.6 ± 2.1 % of control

# input Which Binging with ACE2 (% of control ± SD) is reported for this compound? COc1cc(/C=C/C(=O)CC(=O)/C=C/c2ccc(O)c(OC)c2)ccc1O
# output 4.6 ± 2.4 % of control

# input Which Binging with ACE2 (% of control ± SD) is reported for this compound? COc1c(O)cc2oc(-c3ccc(O)cc3)cc(=O)c2c1O
# output 7.4 ± 2.1 % of control

# input Which Binging with ACE2 (% of control ± SD) is reported for this compound? O=C(O)c1cc(O)c(O)c(O)c1
# output 6.5 ± 1.3 % of control

====

Binging with ACE2 (% of control ± SD) for assorted compounds
Target: hACE2 receptor (Homo sapiens, UniProt Q9BYF1)
Construct: purchased GenScript
Type: binding
Settings: Table 3; tested at 0.1 mg/ml

Guide cases for Binging with ACE2 (% of control ± SD), answers given:
{"columns": ["compound", "test-value"],
 "data": [
  ["Oc1ccc2c(c1)OC[C@]1(O)Cc3cc(O)c(O)cc3[C@H]21", "4.6 ± 2.2 % of control"],
  ["O=C1O[C@H]2[C@@H]3OC(=O)c4cc(O)c(O)c(O)c4-c4c(O)c(O)c5oc(=O)c6c(c(O)c(O)c7oc(=O)c4c5c76)-c4c(cc(O)c(O)c4O)C(=O)OC[C@H]3OC(O)[C@@H]2OC(=O)c2cc(O)c(O)c(O)c2-c2c1cc(O)c(O)c2O (mixture of isomers)", "5.4 ± 2.3 % of control"]
]}

# ---- query compound ----
# input Which Binging with ACE2 (% of control ± SD) is reported for this compound? O=c1c(O)c(-c2ccc(O)cc2O)oc2cc(O)cc(O)c12
# output 5.6 ± 3.1 % of control
